experiment: phase I plasma pharmacokinetics (non-compartmental, LC-MS/MS); assay type: in vivo, human; details: human, plasma, po, 100 mg, multiple oral administration, 100 mg larotinib mesylate, steady state, plasma; read-out: AUC0-∞,ss, mean (min–max)
Structures can show the parent of a compound that is named as a salt.
READOUT NAME: AUC(0-inf)
Don't forget the unit after the number, please.

Req: AUC(0-inf) lookup needed for COc1cc2ncnc(Nc3ccc(F)c(Cl)c3)c2cc1OCCCN1C[C@@H]2OCCO[C@@H]2C1 [larotinib mesylate] , thanks.
Resp: 5200 ng·h/mL

###

test: phase I plasma pharmacokinetics (non-compartmental, LC-MS/MS); assay type: in vivo, human; conditions: human, plasma, po, 220 mg, multiple oral administration, 220 mg larotinib mesylate, steady state, plasma; read-out: Tmax,ss, median (min–max)
Counter-ions that a name gives are not always drawn.
READOUT NAME: Tmax (h)
Give the quantity in h, number only.

Req: Tmax lookup needed for COc1cc2ncnc(Nc3ccc(F)c(Cl)c3)c2cc1OCCCN1C[C@@H]2OCCO[C@@H]2C1 [larotinib mesylate] , thanks.
Resp: 6

###

experiment: phase I plasma pharmacokinetics (non-compartmental, LC-MS/MS); type: in vivo, human; details: human, plasma, po, 400 mg, multiple oral administration, 400 mg larotinib mesylate, steady state, plasma; read-out: AUC0-t,ss, mean (min–max)
Where a name gives a salt, the structure may show the parent alone.
READOUT NAME: AUC(0-t) (ng·h/mL)
Give the quantity in ng·h/mL, number only.

Req: AUC(0-t) lookup needed for COc1cc2ncnc(Nc3ccc(F)c(Cl)c3)c2cc1OCCCN1C[C@@H]2OCCO[C@@H]2C1 [larotinib mesylate] , thanks.
Resp: 45000

###

assay: phase I plasma pharmacokinetics (non-compartmental, LC-MS/MS); type: in vivo, human; conditions: human, plasma, po, 100 mg, multiple oral administration, 100 mg larotinib mesylate, steady state, plasma; read-out: Tmax,ss, median (min–max)
Counter-ions that a name gives are not always drawn.
READOUT NAME: Tmax
Don't forget the unit after the number, please.

Req: Tmax lookup needed for COc1cc2ncnc(Nc3ccc(F)c(Cl)c3)c2cc1OCCCN1C[C@@H]2OCCO[C@@H]2C1 [larotinib mesylate] , thanks.
Resp: 5 h

###

assay: phase I plasma pharmacokinetics (non-compartmental, LC-MS/MS); format: in vivo, human; conditions: human, plasma, po, 300 mg, single oral administration, 300 mg larotinib mesylate, plasma; read-out: Tmax, median (min–max)
Structures can show the parent of a compound that is named as a salt.
READOUT NAME: Tmax (h)
Give the quantity in h, number only.

Req: Tmax lookup needed for COc1cc2ncnc(Nc3ccc(F)c(Cl)c3)c2cc1OCCCN1C[C@@H]2OCCO[C@@H]2C1 [larotinib mesylate] , thanks.
Resp: 5

###

assay: phase I plasma pharmacokinetics (non-compartmental, LC-MS/MS); assay type: in vivo, human; conditions: human, plasma, po, 300 mg, multiple oral administration, 300 mg larotinib mesylate, steady state, plasma; read-out: AUC0-t,ss, mean (min–max)
Structures can show the parent of a compound that is named as a salt.
READOUT NAME: AUC(0-t) (ng·h/mL)
Give the quantity in ng·h/mL, number only.

Req: AUC(0-t) lookup needed for COc1cc2ncnc(Nc3ccc(F)c(Cl)c3)c2cc1OCCCN1C[C@@H]2OCCO[C@@H]2C1 [larotinib mesylate] , thanks.
Resp: 17900

This collection of values is drawn from paper PMC7930822.
